Would you kindly list IC50 for each of these compounds?
TARGET_DESC: KiSS-1 receptor (Homo sapiens, UniProt Q969F8)
Sequence (Q969F8 whole entry): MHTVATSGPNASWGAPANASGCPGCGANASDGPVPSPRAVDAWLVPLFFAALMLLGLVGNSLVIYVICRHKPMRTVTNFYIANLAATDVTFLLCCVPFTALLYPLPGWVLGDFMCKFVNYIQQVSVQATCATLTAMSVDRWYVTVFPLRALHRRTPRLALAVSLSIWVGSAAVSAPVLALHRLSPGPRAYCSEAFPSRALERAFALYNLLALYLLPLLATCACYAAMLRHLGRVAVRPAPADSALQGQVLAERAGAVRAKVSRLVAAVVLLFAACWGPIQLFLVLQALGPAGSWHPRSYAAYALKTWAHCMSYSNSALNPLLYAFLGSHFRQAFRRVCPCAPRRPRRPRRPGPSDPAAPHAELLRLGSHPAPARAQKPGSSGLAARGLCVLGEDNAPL
MEASUREMENT_PROTOCOL: Binding affinity to human KISS1R
Starred links: 1 amine or outer side, 2 acyl side, 3 side chain; linkers in the order of their positions; H or OH if unused. Non-standard residues stand in square brackets, D forms with d. Residues, ends and D or L forms follow the SMILES beside them. X1 = O=C(CNC(=S)[C@H](Cc1ccccc1)N[*:1])[*:2]; Arg(Me) = CNC(=N)NCCC[C@H](N)C(=O)O; azaGly = NNC(=O)O
Give bare numbers, in nM.

I have 2 compounds here; please give me IC50 for each one.
1. CNC(N)=NCCC[C@H](NC(=O)[C@H](CC(C)C)NC(=O)NNC(=O)[C@H](Cc1ccccc1)NC(=O)[C@H](CO)NC(=O)[C@H](CC(N)=O)NC(=O)[C@H](CO)NC(=O)[C@H](CC(N)=O)NC(=O)[C@H](N)Cc1ccc(O)cc1)C(=O)N[C@@H](Cc1ccccc1)C(N)=O (H-[dY]NSNSF[azaGly]L[Arg(Me)]F-NH2)
2. CNC(N)=NCCC[C@H](NC(=O)[C@H](CC(C)C)NC(=O)CNC(=S)[C@H](Cc1ccccc1)NC(=O)[C@H](CO)NC(=O)[C@H](CC(N)=O)NC(=O)[C@H](Cc1c[nH]c2ccccc12)NC(=O)[C@H](CC(N)=O)NC(=O)[C@H](N)Cc1ccc(O)cc1)C(=O)N[C@@H](Cc1ccccc1)C(N)=O (H-[dY]NWNS[X1]L[Arg(Me)]F-NH2)

Result ::
1: 0.49; 2: 2.8

Origin of measurements: ChEMBL document CHEMBL2150961
